# measurement.target: human recombinant GPR65 (Homo sapiens, UniProt Q8IYL9)
# Construct: host or cells: 1321N1 human astrocytoma cells (1321N1-hrGPR65)
# Sequence (Q8IYL9 whole entry): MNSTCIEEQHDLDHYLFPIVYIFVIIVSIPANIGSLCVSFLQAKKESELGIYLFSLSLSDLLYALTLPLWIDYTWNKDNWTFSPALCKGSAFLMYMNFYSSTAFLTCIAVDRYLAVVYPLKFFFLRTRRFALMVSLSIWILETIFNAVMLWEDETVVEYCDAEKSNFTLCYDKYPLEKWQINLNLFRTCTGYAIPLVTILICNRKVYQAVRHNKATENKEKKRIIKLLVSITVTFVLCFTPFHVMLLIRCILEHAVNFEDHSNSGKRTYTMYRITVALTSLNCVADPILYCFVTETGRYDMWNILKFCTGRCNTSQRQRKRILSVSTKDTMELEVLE
# assay: Human GPR65 cAMP HTRF antagonist assay
# Type: cell-based
# test.context: 1321N1-hrGPR65 cells, assay pH 7.2, cAMP HTRF; read-out: hGPR65 IC50 (activity class)
pIC50: −log10 of the molar value.
Would you kindly list pIC50 for each of these compounds?

Answer with the recorded pIC50 for the compound listed here: O=C(Nc1ccc(C(F)(F)F)c(Cl)c1)N1C2CCC1c1cccc(F)c1C2 (racemic)
5.30 to 6.30

Kindly indicate its recorded pIC50. Item: "Cn1cc2c(cc1=O)C[C@@H]1CC[C@H]2N1C(=O)Nc1ccc(Cl)c(Cl)c1"
5.30 to 6.30

Give pIC50 for the following compound: O=C(Nc1ccc(Cl)c(Cl)c1)N1C2CCC1c1cccnc1C2 (racemic)
< 5.30

Let me know recorded pIC50 for N#Cc1ccc(NC(=O)N2C3CCC2c2ccnc(F)c2C3)cc1 (racemic) , thanks.
5.30 to 6.30

Using the record for "O=C(Nc1ccc(Cl)c(Cl)c1)N1[C@@H]2CC[C@H]1c1ccnc(F)c1C2" , state its measured pIC50.
< 5.30

Report pIC50 for O=C(Nc1ccc(Cl)c(Cl)c1)N1C2CCC1c1cncc(F)c1C2 (racemic)
5.30 to 6.30

Note pIC50 for the compound shown: O=C(Nc1ccc(C(F)(F)F)c(Cl)c1)N1C2CCC1c1cc(F)ccc1C2 (racemic)
5.30 to 6.30

Supply pIC50 value. Item: "COc1cc2c(cn1)[C@H]1CC[C@@H](C2)N1C(=O)Nc1ccc(Cl)c(Cl)c1"
< 5.30

* * *

Could you please report measured IC50 for the items listed next?
# measurement.target: human recombinant GPR65 (Homo sapiens, UniProt Q8IYL9)
# Construct: host or cells: 1321N1 human astrocytoma cells (1321N1-hrGPR65)
# assay: Human GPR65 cAMP HTRF antagonist assay
# Type: cell-based
# Source text: In one preferred embodiment, the compound prevents the increase in cytoplasmic cAMP levels expected following GPR65 activation at acidic pH. This prevention of cAMP accumulation in turn prevents downstream signalling through ICER, as described above. […] Human GPR65 Cyclic Adenosine Monophosphate (cAMP) Homogeneous Time Resolved Fluorescence (HTRF) Antagonist Assay Procedure […]

Specify IC50 for O=C(Nc1ccc(Cl)c(Cl)c1)N1C2CCC1c1cc[n+]([O-])cc1C2 (racemic) and stop.
< 500 nM

Please report the measured IC50 for O=C(Nc1cccc(C(F)(F)F)c1)N1C2CCC1c1ccnc(F)c1C2 (racemic)
< 500 nM

For the compound "N#Cc1cc(NC(=O)N2[C@H]3CC[C@@H]2c2ccnc(F)c2C3)ccc1Cl" , give its measured IC50 value.
< 500 nM

Give a short answer stating reported IC50 for "O=C(Nc1ccc(Cl)c(Br)c1)N1[C@H]2CC[C@@H]1c1c[nH]c(=O)cc1C2" .
< 500 nM

Write down IC50 measured for item O=C(Nc1cc(Cl)c(Cl)cc1F)N1C2CCC1c1c[nH]c(=O)c(F)c1C2 (racemic)
< 500 nM

Using known records, supply IC50 for "O=C(Nc1ccc(Cl)c(Cl)c1)N1[C@H]2CC[C@@H]1c1ccncc1C2"
< 500 nM

Supply IC50 value. Item: "N#Cc1cc(Cl)c(Cl)cc1NC(=O)N1[C@H]2CC[C@@H]1c1c[nH]c(=O)cc1C2"
< 500 nM

For the compound "O=C(Nc1cc(Cl)c(C(F)(F)F)cc1F)N1[C@@H]2CC[C@H]1c1ccc(F)nc1C2" , report IC50.
500 to 5000 nM

Return IC50 (reported value) for this compound: "O=C(Nc1ccc(Cl)c(Cl)c1)N1[C@@H]2CC[C@H]1c1cnc(F)cc1C2"
500 to 5000 nM

State its IC50: O=C(Nc1ccc(F)c(Br)c1)N1C2CCC1c1ccnc(F)c1C2 (racemic)
< 500 nM

Kindly indicate its recorded IC50. Item: O=C(Nc1cc(Cl)ccc1F)N1C2CCC1c1ccnc(F)c1C2 (racemic)
< 500 nM

Look up IC50 of "Cc1ncoc1-c1ccc(NC(=O)N2[C@H]3CC[C@@H]2c2ccnc(F)c2C3)cc1" and report it.
500 to 5000 nM

Please report IC50 for the following compound: "COC(=O)c1ccc(NC(=O)N2[C@H]3CC[C@@H]2c2ccnc(F)c2C3)cc1Cl"
< 500 nM

Return reported IC50. Input compound: O=C(Nc1ccc(F)c(Cl)c1)N1C2CCC1c1ccnc(F)c1C2 (racemic)
< 500 nM

Note IC50 for the compound shown: "O=C(Nc1cc(Cl)c(Cl)cc1F)N1[C@H]2CC[C@@H]1c1c(F)cncc1C2"
< 500 nM

Complete the entry with IC50 for O=C(Nc1ccc(C(F)(F)F)c(Br)c1)N1C2CCC1c1cncnc1C2 (racemic)
< 500 nM

* * *

# measurement.target: human recombinant GPR65 (Homo sapiens)
# Construct: host or cells: 1321N1 human astrocytoma cells (1321N1-hrGPR65)
# assay: Human GPR65 cAMP HTRF antagonist assay
# Assay type: cell-based
# test.context: 1321N1-hrGPR65 cells, assay pH 7.2, cAMP HTRF; read-out: hGPR65 IC50 (activity class)
pIC50: −log10 of the molar value.
readout: pIC50

Indicate the recorded pIC50 value for this molecule: Nc1nccc2c1CC1CCC2N1C(=O)Nc1ccc(Cl)c(Cl)c1 (racemic)
< 5.30

Output pIC50 of CC(C)(C)OC(=O)Nc1nccc2c1C1CCC(C2)N1C(=O)Nc1ccc(Cl)c(Cl)c1 (racemic)
5.30 to 6.30

Quickly give me recorded pIC50 for O=C(Nc1ccc(F)c(F)c1F)N1C2CCC1c1ccnc(F)c1C2 (racemic)
5.30 to 6.30

# return recorded pIC50 for entry CC(C)(C)Nc1nccc2c1CC1CCC2N1C(=O)Nc1ccc(Cl)c(Cl)c1 (racemic)
5.30 to 6.30

Provide measured pIC50 value, entry: Nc1cc2c(cn1)CC1CCC2N1C(=O)Nc1ccc(Cl)c(Cl)c1 (racemic)
5.30 to 6.30

Answer with the recorded pIC50 of O=C(Nc1cc(Cl)cc(Cl)c1)N1C2CCC1c1cncnc1C2 (racemic) only.
5.30 to 6.30

Check the records and state pIC50 for O=C(Nc1ccc(Cl)c(Cl)c1)N1C2CCC1c1c(ccnc1F)C2 (racemic)
5.30 to 6.30

For the molecule "O=C(Nc1cc(Cl)c(Cl)cc1F)N1[C@H]2CC[C@@H]1c1ccnc(C(F)(F)F)c1C2" , give its reported pIC50.
5.30 to 6.30

Output measured pIC50 for this item: COc1ccc(NC(=O)N2C3CCC2c2cncnc2C3)cc1Cl (racemic)
< 5.30

For the molecule "COC(=O)c1ccc(NC(=O)N2[C@H]3CC[C@@H]2c2c[nH]c(=O)cc2C3)cc1Cl" , give its measured pIC50 value.
5.30 to 6.30

Answer with the recorded pIC50 of Nc1ccc2c(c1)CC1CCC2N1C(=O)Nc1ccc(Cl)c(Cl)c1 (racemic) only.
< 5.30

Note pIC50 for the molecule shown: "O=C(Nc1ccc(Cl)c(Cl)c1)N1[C@H]2CC[C@@H]1c1cnccc1C2"
5.30 to 6.30

Retrieve pIC50 measured for O=C(Nc1ccc(C(F)(F)F)c(Cl)c1)N1C2CCC1c1cnc(C(F)(F)F)nc1C2 (racemic) and print it.
< 5.30

Please report the measured pIC50 for "O=C(Nc1ccc(-c2cnco2)cc1)N1[C@H]2CC[C@@H]1c1ccnc(F)c1C2"
5.30 to 6.30

Please list pIC50 recorded for the molecule O=C(Nc1cccc(F)c1)N1C2CCC1c1ccnc(F)c1C2 (racemic)
5.30 to 6.30

Please report pIC50 for the following molecule: "COC(=O)c1cc(NC(=O)N2[C@H]3CC[C@@H]2c2c[nH]c(=O)cc2C3)c(F)cc1Cl"
5.30 to 6.30

* * *

# measurement.target: human recombinant GPR65 (Homo sapiens, UniProt Q8IYL9)
# Construct: host or cells: 1321N1 human astrocytoma cells (1321N1-hrGPR65)
# assay: Human GPR65 cAMP HTRF antagonist assay
# Format: cell-based
Exercise: state measured IC50 for each of the compounds provided.

Output IC50 of "O=C(Nc1cc(Cl)c(C(F)(F)F)cc1F)N1[C@H]2CC[C@@H]1c1c[nH]c(=O)cc1C2"
< 500 nM

Specify reported IC50 for the compound shown: "O=C(Nc1cc(Cl)c(C(F)(F)F)cc1F)N1[C@H]2CC[C@@H]1c1ccc(F)nc1C2"
< 500 nM

Identify measured IC50 associated with "O=C(Nc1ccc(OC(F)F)c(Cl)c1)N1[C@H]2CC[C@@H]1c1ccnc(F)c1C2"
< 500 nM

* * *

Record form. Attribute: pIC50. Fill in for each entry.
# measurement.target: human recombinant GPR65 (Homo sapiens, UniProt Q8IYL9)
# Construct: host or cells: 1321N1 human astrocytoma cells (1321N1-hrGPR65)
# assay: Human GPR65 cAMP HTRF antagonist assay
# Type: cell-based
# test.context: 1321N1-hrGPR65 cells, assay pH 7.2, cAMP HTRF; read-out: hGPR65 IC50 (activity class)
# Excerpt: In one preferred embodiment, the compound prevents the increase in cytoplasmic cAMP levels expected following GPR65 activation at acidic pH. This prevention of cAMP accumulation in turn prevents downstream signalling through ICER, as described above. […] Human GPR65 Cyclic Adenosine Monophosphate (cAMP) Homogeneous Time Resolved Fluorescence (HTRF) Antagonist Assay Procedure […]
pIC50: −log10 of the molar value.

Entry "O=C(Nc1ccc(C(F)(F)F)c(Cl)c1)N1[C@@H]2CC[C@H]1c1c[nH]c(=O)nc1C2" needs its pIC50 filled in; supply it.
< 5.30

Write down pIC50 measured for item "COC(=O)c1cc(NC(=O)N2[C@H]3CC[C@@H]2c2c[nH]c(=O)cc2C3)ccc1Cl"
5.30 to 6.30

Answer with reported pIC50 of O=C(Nc1ccc(OC(F)F)cc1)N1C2CCC1c1ccnc(F)c1C2 (racemic)
5.30 to 6.30

Output measured pIC50 for this item: O=C(Nc1ccc(Cl)c(Cl)c1)N1C2CCC1C(F)c1ncncc12 (racemic) [Compound 114]
5.30 to 6.30

Item O=C(Nc1ccc(Cl)c(Br)c1)N1C2CCC1c1cncnc1C2 (racemic) : provide pIC50
5.30 to 6.30

Give pIC50 for the following compound: O=C(Nc1cc(F)cc(F)c1)N1C2CCC1c1ccnc(F)c1C2 (racemic)
5.30 to 6.30

Supply recorded pIC50 for O=C(Nc1ccc(Cl)c(Cl)c1)N1C2CCC1c1cccc(F)c1C2 (racemic) here.
5.30 to 6.30

Give the reported value of pIC50 for this record: "COc1cc(Cl)c(Cl)cc1NC(=O)N1[C@H]2CC[C@@H]1c1ccnc(F)c1C2"
5.30 to 6.30
